# Test details: Aqueous stability assessed as half life at pH 8.0 buffer
# Type: physicochemical
Measured metric: t1/2 (h)
Entry rule: numbers only, all in h.

Example entries begin here.
COc1ccc(S(=O)(=O)n2nc(OC(=O)c3c(F)cc(F)cc3F)cc2N)cc1 = 4.25
COc1ccc(S(=O)(=O)n2nc(OC(=O)c3c(F)cccc3F)cc2N)cc1 = 1.5

// Input: "COc1ccc(S(=O)(=O)n2nc(C)cc2NC(=O)c2ccccc2)cc1" . Output its t1/2 only.
1.25

Please supply the value of reported t1/2 for the item "COc1ccc(S(=O)(=O)n2nc(OC(=O)c3c(Cl)cccc3Cl)cc2N)cc1"
5

Item "COc1ccc(Cn2nc(C)cc2OC(=O)c2ccccc2)cc1" : provide t1/2
15

Item "COc1ccc(Cn2nc(C)cc2/C=C/c2c(F)cccc2F)cc1" : provide t1/2
13
